Test system: AncSZ;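 also: 11-residue human phosphosite peptides and single-mutation variants displayed on the E. coli surface, counted by deep sequencing, each peptide's frequency after selection divided by its frequency in the unselected input library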;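 also: frequency after pTyr selection over input frequency; kinase dosed for 20-30% of maximal phosphorylation in three min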
Test: phosphorylation enrichment, bacterial display (enrichment ratio); higher = better substrate or ligand; peptides without Tyr show the background
OUTCOME_MEASURE: phosphorylation enrichment
Give bare numbers.

- BIOPOLYMER_SEQUENCE: "LENSTYQYICV [CRB1_Y760_R764C]"
  SYSTEM: "AncSZ"
  phosphorylation enrichment: 3.88
- BIOPOLYMER_SEQUENCE: "SRDDFYETIAM [NPY1R_Y347_D346Y_YF]"
  SYSTEM: "AncSZ"
  phosphorylation enrichment: 1.3
- BIOPOLYMER_SEQUENCE: "AFLLLYFNDTH [BMP15_Y235]"
  SYSTEM: "AncSZ"
  phosphorylation enrichment: 1.15

# ---- query sequence ----
Task item: Under AncSZ: phosphorylation enrichment value of ISIFHCAKGQP [MPZ_Y82_Y82C] ?
Reply: 1.33

Reference source: the supplement of paper PMC10065799
